biological target: RARβ (Homo sapiens, UniProt P10826)
Sequence (P10826 whole entry, species assumed): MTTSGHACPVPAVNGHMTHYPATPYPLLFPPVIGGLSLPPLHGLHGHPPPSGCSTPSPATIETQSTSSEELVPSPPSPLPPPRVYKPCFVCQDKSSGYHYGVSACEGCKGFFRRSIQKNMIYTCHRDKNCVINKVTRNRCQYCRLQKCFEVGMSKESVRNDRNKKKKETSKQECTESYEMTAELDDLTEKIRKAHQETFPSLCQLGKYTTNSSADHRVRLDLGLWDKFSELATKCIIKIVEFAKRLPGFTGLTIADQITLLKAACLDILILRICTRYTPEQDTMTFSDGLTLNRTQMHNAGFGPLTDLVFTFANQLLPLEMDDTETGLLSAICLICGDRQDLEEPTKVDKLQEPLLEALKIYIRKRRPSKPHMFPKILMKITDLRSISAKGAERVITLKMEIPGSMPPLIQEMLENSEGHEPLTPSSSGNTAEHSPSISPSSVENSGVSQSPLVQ
So basically: is Ki under 600 nM? Then satisfied. Not under? Then not satisfied.

INPUT: # check: Ki < 600 nM for CC/C(=C(F)/C=C/C(C)=C/C(=O)O)c1cc2c(cc1OC)OC(C)(C)C=C2C
OUTPUT: satisfied

INPUT: Identify whether the molecule CC/C(=C(F)/C=C/C(C)=C/C(=O)O)c1cc2c(c(Cl)c1OC)OC(C)(C)C=C2C(C)C records Ki below 600 nM.
OUTPUT: satisfied

INPUT: Is 600 nM strictly greater than the molecule's reported Ki? molecule: COc1c(\C(C)=C/C=C/C(C)=C/C(=O)O)cc2c(c1Cl)OC(C)(C)C=C2C(C)C
OUTPUT: not satisfied

INPUT: Quick check: does CCOc1cc2c(cc1\C(C)=C(F)/C=C/C(C)=C/C(=O)O)C(CC)=CC(C)(C)O2 have Ki under 600 nM?
OUTPUT: not satisfied

INPUT: Please let me know if COc1cc2c(cc1\C(C)=C(F)/C=C/C(C)=C/C(=O)O)C(C(C)C)=CC(C)(C)O2 shows Ki below 600 nM.
OUTPUT: not satisfied

INPUT: Does CCOc1cc2c(cc1\C(C)=C/C=C/C(C)=C/C(=O)O)C(C(C)(C)C)=CCC2(C)C have Ki strictly under 600 nM?
OUTPUT: satisfied

INPUT: Dear colleague, could you confirm whether Ki of CCCOc1cc2c(cc1\C(C)=C(F)/C=C/C(C)=C/C(=O)O)C(C(C)(C)C)=CCC2(C)C falls below 600 nM? Thanks.
OUTPUT: not satisfied

----------
Target: RXRβ (UniProt P28704)
Sequence (P28704 1-520): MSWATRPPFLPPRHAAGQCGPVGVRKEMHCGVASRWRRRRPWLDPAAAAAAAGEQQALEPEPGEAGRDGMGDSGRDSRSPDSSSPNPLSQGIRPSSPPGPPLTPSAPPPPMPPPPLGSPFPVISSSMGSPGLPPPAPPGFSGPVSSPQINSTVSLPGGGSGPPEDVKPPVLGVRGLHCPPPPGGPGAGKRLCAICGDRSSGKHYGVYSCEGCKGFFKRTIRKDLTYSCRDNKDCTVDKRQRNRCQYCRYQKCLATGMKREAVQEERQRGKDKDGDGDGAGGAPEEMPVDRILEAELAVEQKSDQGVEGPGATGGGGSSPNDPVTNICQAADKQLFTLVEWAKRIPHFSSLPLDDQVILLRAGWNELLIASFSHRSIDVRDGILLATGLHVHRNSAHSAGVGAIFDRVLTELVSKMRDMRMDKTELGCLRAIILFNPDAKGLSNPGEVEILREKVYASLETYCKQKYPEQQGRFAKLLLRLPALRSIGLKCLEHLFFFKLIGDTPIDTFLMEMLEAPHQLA
For each of the molecules below, state its pKd.
Remember the convention: pKd equals -log10 of concentration in molar.

INPUT: Requested read-out: pKd. Entry: CC(/C=C/C(F)=C(/C)c1cc2c(c(Br)c1OC(C)C)C(C)(C)CC=C2C(C)(C)C)=C\C(=O)O
OUTPUT: 7.51

INPUT: Item CCOc1c(\C(CC)=C(F)/C=C/C(C)=C/C(=O)O)cc2c(c1Cl)C(C)(C)CC=C2C(C)C has what recorded pKd?
OUTPUT: 7.96

INPUT: What value of measured pKd is listed for CCOc1c(\C(C)=C(F)/C=C/C(C)=C/C(=O)O)cc2c(c1Br)C(C)(C)CC=C2C(C)C ?
OUTPUT: 7.80

INPUT: Quick one: pKd of CCOc1c(\C(C)=C(F)/C=C/C(C)=C/C(=O)O)cc2c(c1Cl)C(C)(C)CC=C2C(C)C ?
OUTPUT: 7.92

INPUT: Any idea what pKd was measured for CCOc1c(\C(CC)=C(F)/C=C/C(C)=C/C(=O)O)cc2c(c1Br)C(C)(C)CC=C2C(C)CC (centres unmarked) ?
OUTPUT: 7.64
